src = ChEMBL document CHEMBL1131475

- METHOD: in vivo
- CONDITION SET: rat, plasma, po, 10 mg/kg
PROPERTY LABEL: Cmax (nM)
Answers are plain numbers, in nM.

| COMPOUND | PROPERTY LABEL | RESULT UNIT | NUMERIC VALUE |
| --- | --- | --- | --- |
| Cc1ccc(COC(=O)NC(C(=O)N[C@@H](Cc2ccccc2)[C@@H](O)C[C@H](Cc2ccccc2)NC(=O)OCc2cccnc2)C(C)C)cn1 (stereo partly drawn) | Cmax | nM | 450 |
| Cc1cncc(COC(=O)NC(C(=O)N[C@@H](Cc2ccccc2)C[C@H](O)[C@H](Cc2ccccc2)NC(=O)OCc2cccnc2)C(C)C)c1 (stereo partly drawn) | Cmax | nM | 330 |
| CC(NC(=O)N(C)Cc1csc(C(C)C)n1)C(=O)N[C@@H](Cc1ccccc1)C[C@H](O)[C@H](Cc1ccccc1)NC(=O)OCc1cncs1 (stereo partly drawn) | Cmax | nM | 1680 |
| Cc1ncc(COC(=O)NC(C(=O)N[C@@H](Cc2ccccc2)C[C@H](O)[C@H](Cc2ccccc2)NC(=O)OCc2cccnc2)C(C)C)nc1C (stereo partly drawn) | Cmax | nM | 2060 |
| CC(C)c1nc(CN(C)C(=O)NC(C(=O)N[C@@H](Cc2ccccc2)[C@@H](O)C[C@H](Cc2ccccc2)NC(=O)OCc2cccnc2)C(C)C)co1 (stereo partly drawn) | Cmax | nM | 290 |
| CC(C)C(NC(=O)OCc1cnccn1)C(=O)N[C@@H](Cc1ccccc1)C[C@H](O)[C@H](Cc1ccccc1)NC(=O)OCc1cccnc1 (stereo partly drawn) | Cmax | nM | 500 |
| CC(C)c1nc(CN(C)C(=O)NC(C(=O)N[C@@H](Cc2ccccc2)C[C@H](O)[C@H](Cc2ccccc2)NC(=O)OCc2ccno2)C(C)C)co1 (stereo partly drawn) | Cmax | nM | 490 |
| CC(NC(=O)N(Cc1csc(C(C)C)n1)C1CC1)C(=O)N[C@@H](Cc1ccccc1)C[C@H](O)[C@H](Cc1ccccc1)NC(=O)OCc1cncs1 (stereo partly drawn) | Cmax | nM | 5190 |
| COc1ccc(COC(=O)NC(C(=O)N[C@@H](Cc2ccccc2)C[C@H](O)[C@H](Cc2ccccc2)NC(=O)OCc2cccnc2)C(C)C)cn1 (stereo partly drawn) | Cmax | nM | 190 |
| Cc1cccc(CN(C)C(=O)NC(C(=O)N[C@@H](Cc2ccccc2)C[C@H](O)[C@H](Cc2ccccc2)NC(=O)OCc2cccnc2)C(C)C)n1 (stereo partly drawn) | Cmax | nM | 3390 |

# map each compound to its Cmax
1. COc1cncc(CN(C)C(=O)NC(C(=O)N[C@@H](Cc2ccccc2)[C@@H](O)C[C@H](Cc2ccccc2)NC(=O)OCc2cccnc2)C(C)C)c1 (stereo partly drawn)
2. CCc1cccc(CN(C)C(=O)NC(C(=O)N[C@@H](Cc2ccccc2)[C@@H](O)C[C@H](Cc2ccccc2)NC(=O)OCc2cccnc2)C(C)C)n1 (stereo partly drawn)
3. CC(C)C(NC(=O)OCc1ccccn1)C(=O)N[C@@H](Cc1ccccc1)[C@@H](O)C[C@H](Cc1ccccc1)NC(=O)OCc1cccnc1 (stereo partly drawn)

Result string:
1. 440
2. 1530
3. 4110
